Reported values of melting point for individual entries

Example entries and their recorded answers appear below.
{"SMILES": "O=C(O)c1ccc(S(=O)(=O)Oc2ccc(CCc3c(Cc4ccccc4)sc4ccccc34)cc2)cc1O", "melting point": "57 to 59 °C"}
{"SMILES": "CCCCOCCCNc1ccc(-n2cc(C(F)(F)F)ccc2=O)c(Cl)c1", "melting point": "83 to 85 °C"}

Exam item: Fill blank: measured melting point of the molecule "CCCc1nc2ccccc2n1CC1=C(c2cccc(-c3nnn[nH]3)c2)CCC1" is ____.
Marked response: 116 to 119 °C

Exam item: Fill blank: measured melting point of the molecule "O=[N+]([O-])c1ccc(-n2cccn2)cc1" is ____.
Marked response: 210 °C

Exam item: Fill blank: measured melting point of the molecule "CCN(CC)C(=O)c1cc2ccccc2c(-c2ccc(C)cc2)n1" is ____.
Marked response: 113 °C

Exam item: Fill blank: measured melting point of the molecule "Cc1cccc(Cl)c1OC1CN(C(=O)Cl)C1" is ____.
Marked response: 67 to 69 °C

Exam item: Fill blank: measured melting point of the molecule "O=[N+]([O-])c1cn(-c2cccnc2)nc1-c1ccccc1" is ____.
Marked response: 144 to 146 °C

Exam item: Fill blank: measured melting point of the molecule "CC(=O)NC1(c2ccc(CN3CCN(c4cccc(F)n4)CC3)cc2)CC1" is ____.
Marked response: 135 to 136 °C

Exam item: Fill blank: measured melting point of the molecule "IC(I)=C(I)Cn1nnc(-c2ccccc2)n1" is ____.
Marked response: 188 °C

Exam item: Fill blank: measured melting point of the molecule "CC(=O)C(=Cc1ccccc1)c1ccncc1" is ____.
Marked response: 101 to 103 °C

Measured values drawn from a melting point compilation (Tetko et al.; mined from patent text by program, amines drawn as free bases though some values may be those of a salt) for this set.
